log10(CC50) listing for selected molecules.
- assay-text: Cytotoxicity against human MT4 cells measured by MTT assay
- Assay type: cell-based
Give log10 of CC50, with CC50 taken in µM.

N#Cc1ccc(Nc2nccc(NC3CC3)n2)cc1
0.08
Cc1cc(OC2CCCC2)nc(Nc2ccc(C#N)cc2)n1
0.02

Now turn to the next molecule.
Requested field: log10(CC50). Item: Cc1cnc(Nc2ccc(C#N)cc2)nc1OC1CCCCC1
1.49

###

- assay-text: Selectivity index, ratio of CC50 for human MT4 cells to EC50 for HIV1 3B
- Format: toxicity, cell-based
- run-conditions: read-out: Ratio CC50/EC50
endpoint: selectivity ratio

CC(C)Nc1cccnc1N1CCN(C(=O)c2cc3cc(NS(C)(=O)=O)ccc3[nH]2)CC1 [DELAVIRDINE]
> 274

Requested field: selectivity ratio. Item: Cc1cc(NC2CCCCC2)nc(Nc2ccc(C#N)cc2)n1
< 1

Requested field: selectivity ratio. Item: Cc1cn([C@H]2C[C@H](N=[N+]=[N-])[C@@H](CO)O2)c(=O)[nH]c1=O [ZIDOVUDINE]
≥ 6360

Requested field: selectivity ratio. Item: Cc1cnc(Nc2ccc(C#N)cc2)nc1OC1CCCC1
< 1

Requested field: selectivity ratio. Item: N#Cc1ccc(Nc2nccc(NC3CC3)n2)cc1
< 1

Requested field: selectivity ratio. Item: N#Cc1ccc(Nc2nccc(OC3CCCCC3)n2)cc1
276

Requested field: selectivity ratio. Item: N#Cc1ccc(Nc2nccc(OC3CCCC3)n2)cc1
≥ 51

Requested field: selectivity ratio. Item: Cc1cc(SC2CCCCC2)nc(Nc2ccc(C#N)cc2)n1
≥ 2010

Requested field: selectivity ratio. Item: N#Cc1ccc(Nc2nccc(NC3CCCC3)n2)cc1
6

Requested field: selectivity ratio. Item: N#Cc1ccc(Nc2nccc(NC3CCCCC3)n2)cc1
8
